- tested-system: T1, TNFSF18 (recombinant human protein) (human, UniProt Q9UNG2 52-177, limits assumed)
- T1 construct: Recombinant human protein immobilized at 5 ug/mL for ELISA
- T1 sequence (looked up): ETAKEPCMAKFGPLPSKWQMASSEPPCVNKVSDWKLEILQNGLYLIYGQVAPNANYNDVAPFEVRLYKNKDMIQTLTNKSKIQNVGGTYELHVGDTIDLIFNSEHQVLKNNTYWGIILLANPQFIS
- assay-text: ELISA, recombinant human protein coated, nanobody-Fc titrated, anti-human IgG HRP
- Description: Recombinant human protein was diluted in PBS to a final concentration of 5 μg/mL and was immobilized on 96-well flat bottom MaxiSorp plates (Thermo Fisher Scientific) and placed at 4° C. overnight. Plates were washed three times with 225 μL ELISA wash buffer (PBS with 0.05% Tween 20) and 200 μL ELISA blocking buffer (PBS with 1% Casein) was added to the well. […] 50 μL 1 M sulfuric acid was added to the wells and absorbance at 450 nm was measured in a Synergy HTX Multi-Mode Microplate Reader (BioTek).
observation-type: log10(EC50) (log10 of the value in nM)
The base-10 logarithm of EC50, taken with EC50 in nM, is what appears here.

// log10(EC50) value for TNFSF18_Nb101 (Fc fusion, Nanobody expressed as an Fc fusion protein (fused with human IgG1) in Expi293 cells; not shown: human IgG1 Fc; nanobodies expressed as Fc fusion from vector pCER243) QVQLQESGGGLVQAGGSLRLSCAASGYIFDDYGMGWYRQAPGKERELVATINAGANTNYADSVKGRFTISRDNAKNTVYLQMNSLKPEDTAVYYCAVYYGPYYRYLDPYLYWGQGTQVTVSS : 1.35

// log10(EC50) value for TNFSF18_Nb93 (Fc fusion, Nanobody expressed as an Fc fusion protein (fused with human IgG1) in Expi293 cells; not shown: human IgG1 Fc; nanobodies expressed as Fc fusion from vector pCER243) QVQLQESGGGLVQAGGSLRLSCAASGNISDPPFMGWYRQAPGKERELVAGISWGASTYYADSVKGRFTISRDNAKNTVYLQMNSLKPEDTAVYYCAAVTTDFGAYPFAYWGQGTQVTVSS : 0.20

// log10(EC50) value for TNFSF18_Nb96 (Fc fusion, Nanobody expressed as an Fc fusion protein (fused with human IgG1) in Expi293 cells; not shown: human IgG1 Fc; nanobodies expressed as Fc fusion from vector pCER243) QVQLQESGGGLVQAGGSLRLSCAASGNISWVYWMGWYRQAPGKERELVAGIATGGSTNYADSVKGRFTISRDNAKNTVYLQMNSLKPEDTAVYYCAVVASNGSRFWYWGQGTQVTVSS : 0.61

// log10(EC50) value for TNFSF18_Nb94 (Fc fusion, Nanobody expressed as an Fc fusion protein (fused with human IgG1) in Expi293 cells; not shown: human IgG1 Fc; nanobodies expressed as Fc fusion from vector pCER243) QVQLQESGGGLVQAGGSLRLSCAASGNISLYYDMGWYRQAPGKERELVAAIDPGTITYYADSVKGRFTISRDNAKNTVYLQMNSLKPEDTAVYYCAVVIPDYVYRYVVGTVDYGYWGQGTQVTVSS : 1.86

// log10(EC50) value for TNFSF18_Nb98 (Fc fusion, Nanobody expressed as an Fc fusion protein (fused with human IgG1) in Expi293 cells; not shown: human IgG1 Fc; nanobodies expressed as Fc fusion from vector pCER243) QVQLQESGGGLVQAGGSLRLSCAASGSIFYVIAMGWYRQAPGKERELVATITAGTNTYYADSVKGRFTISRDNAKNTVYLQMNSLKPEDTAVYYCAVYALQQDVYDRSHAYWGQGTQVTVSS : 0.78
